- System: MOLT-4
- assay-comment: Cytotoxicity against human MOLT4 cells
- Assay type: functional, cell-based
measured-parameter: IC50

INPUT: Recorded IC50 of CO[C@H]1[C@@H](OC)C[C@H](C)[C@@H](OC)C2=CC(=O)C=C(NC(=O)/C(C)=C/C=C/[C@H](OC)[C@@H](OC(N)=O)/C(C)=C/[C@@H]1C)C2=O , please.
OUTPUT: > 1 µM

====

- system: Tyrosine-protein kinase transforming protein Abl (Abelson murine leukemia virus)
Mark 1 for IC50 under 50 µM, 0 if at or over.

INPUT: Find out if reported IC50 for Nc1ncnc2c1ncn2[C@@H]1O[C@H](COC(=O)c2ccc(S(=O)(=O)NCCCc3ccccc3)cc2)[C@@H](O)[C@H]1O is less than 50 µM
OUTPUT: 0

INPUT: Moving on to the next compound: O=C(O)c1ccc(S(=O)(=O)Oc2ccc(/C=C/[N+](=O)[O-])cc2)cc1O
OUTPUT: 1

INPUT: Moving on to the next compound: CC(C)NC(=O)c1ccc(S(=O)(=O)Oc2ccc(/C=C/[N+](=O)[O-])cc2)cc1
OUTPUT: 0

INPUT: Moving on to the next compound: C[C@H](NC(=O)c1ccc(S(=O)(=O)Oc2ccc(/C=C/[N+](=O)[O-])cc2)cc1)C(=O)N[C@@H](C)C(=O)NCCN
OUTPUT: 1

INPUT: Moving on to the next compound: Nc1ncnc2c1ncn2[C@@H]1O[C@H](COC(=O)c2ccc(S(=O)(=O)Oc3ccc(/C=C/[N+](=O)[O-])cc3)cc2)[C@@H](O)[C@H]1O
OUTPUT: 0

INPUT: Moving on to the next compound: CC(=O)NC(Cc1ccc(NP(=O)(O)OP(=O)(O)OP(=O)(O)OP(=O)(O)OC[C@H]2O[C@@H](n3cnc4c(N)ncnc43)[C@H](O)[C@@H]2O)cc1)C(N)=O (some centres undefined)
OUTPUT: 0

INPUT: Moving on to the next compound: C[C@H](NC(=O)[C@H](C)NC(=O)c1ccc(S(=O)(=O)Oc2ccc(/C=C/[N+](=O)[O-])cc2)cc1)C(=O)O
OUTPUT: 1

====

In what follows, each item is paired with its pIC50 for Epidermal growth factor receptor (Homo sapiens).
Keep it numeric: pIC50 is minus log10 of the concentration in mol/L.

INPUT: Recorded pIC50 of N#C/C(=C\c1cc(CSc2ccccc2)c(O)c(OCc2ccccc2)c1)C(N)=O , please.
OUTPUT: 6.10

INPUT: Moving on to the next compound: CC(=O)N/C=C/c1cc(O)ccc1O
OUTPUT: 4.81

INPUT: Moving on to the next compound: CSCc1oc2cc(O)cc(O)c2c(=O)c1-c1ccc(O)cc1
OUTPUT: 4.82

INPUT: Moving on to the next compound: Cc1oc2cc(O)cc(O)c2c(=O)c1-c1ccc(O)cc1
OUTPUT: 5.15

INPUT: Moving on to the next compound: N#CC(C#N)=C1C(=O)Nc2ccc(O)cc21
OUTPUT: 5.00

INPUT: Moving on to the next compound: O=C(O)c1oc2cc(O)cc(O)c2c(=O)c1-c1ccc(O)cc1
OUTPUT: 5.20

INPUT: Moving on to the next compound: CC(C)(C)c1cc(/C=C(\C#N)C(N)=O)cc(C(C)(C)C)c1O
OUTPUT: 4.30

INPUT: Moving on to the next compound: CCOc1cc(/C=C(\C#N)C(N)=O)cc(CSc2ccccc2)c1O
OUTPUT: 6.40

INPUT: Moving on to the next compound: CC(C)c1cc(/C=C(\C#N)C(N)=O)cc(C(C)C)c1O
OUTPUT: 6.00

INPUT: Moving on to the next compound: CCOC(=O)CSCc1oc2cc(O)cc(O)c2c(=O)c1-c1ccc(O)cc1
OUTPUT: 5.00

====

For each record, write down the corresponding pIC50.
- system: Tyrosine-protein kinase transforming protein Abl (Abelson murine leukemia virus, UniProt P00521)
- Sequence (P00521 whole entry): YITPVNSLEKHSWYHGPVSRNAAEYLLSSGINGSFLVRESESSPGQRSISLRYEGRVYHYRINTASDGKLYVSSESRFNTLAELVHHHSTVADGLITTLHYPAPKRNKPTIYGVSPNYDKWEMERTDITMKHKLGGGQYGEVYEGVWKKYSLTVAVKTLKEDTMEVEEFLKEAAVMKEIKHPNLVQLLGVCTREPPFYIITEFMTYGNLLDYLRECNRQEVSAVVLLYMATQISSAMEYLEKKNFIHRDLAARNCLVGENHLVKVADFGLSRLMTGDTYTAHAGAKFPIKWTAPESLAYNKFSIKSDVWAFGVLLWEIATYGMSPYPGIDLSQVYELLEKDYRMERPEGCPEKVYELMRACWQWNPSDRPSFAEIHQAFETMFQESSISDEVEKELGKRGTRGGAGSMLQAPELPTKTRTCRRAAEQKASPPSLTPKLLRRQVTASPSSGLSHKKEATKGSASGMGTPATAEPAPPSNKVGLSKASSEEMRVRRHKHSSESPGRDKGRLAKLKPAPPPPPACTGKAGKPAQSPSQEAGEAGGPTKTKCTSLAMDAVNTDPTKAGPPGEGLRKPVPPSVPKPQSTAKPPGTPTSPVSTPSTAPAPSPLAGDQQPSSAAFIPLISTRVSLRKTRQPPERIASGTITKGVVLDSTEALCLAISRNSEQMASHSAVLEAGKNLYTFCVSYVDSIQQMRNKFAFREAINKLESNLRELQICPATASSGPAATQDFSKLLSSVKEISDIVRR
Keep it numeric: pIC50 is minus log10 of the concentration in mol/L.

INPUT: Recorded pIC50 of Nc1ncnc2c1ncn2[C@@H]1O[C@H](COC(=O)c2ccc(S(=O)(=O)F)cc2)[C@@H](O)[C@H]1O , please.
OUTPUT: 3.70

INPUT: Moving on to the next compound: Cc1ccc(NP(=O)(O)OP(=O)(O)OP(=O)(O)OC[C@H]2O[C@@H](n3cnc4c(N)ncnc43)[C@H](O)[C@@H]2O)cc1
OUTPUT: 3.70

INPUT: Moving on to the next compound: C[C@H](NC(=O)c1ccc(S(=O)(=O)Oc2ccc(/C=C/[N+](=O)[O-])cc2)cc1)C(=O)N[C@@H](C)C(=O)OC(C)(C)C
OUTPUT: 4.00

INPUT: Moving on to the next compound: COc1ccc(NP(=O)(O)OP(=O)(O)OP(=O)(O)OC[C@H]2O[C@@H](n3cnc4c(N)ncnc43)[C@H](O)[C@@H]2O)cc1
OUTPUT: 4.05

INPUT: Moving on to the next compound: O=C(O)c1ccc(S(=O)(=O)Oc2ccc(/C=C/[N+](=O)[O-])cc2)c(O)c1
OUTPUT: 4.00

====

- system: Tyrosine-protein kinase Lck (Homo sapiens, UniProt P06239)
- Sequence (P06239 whole entry): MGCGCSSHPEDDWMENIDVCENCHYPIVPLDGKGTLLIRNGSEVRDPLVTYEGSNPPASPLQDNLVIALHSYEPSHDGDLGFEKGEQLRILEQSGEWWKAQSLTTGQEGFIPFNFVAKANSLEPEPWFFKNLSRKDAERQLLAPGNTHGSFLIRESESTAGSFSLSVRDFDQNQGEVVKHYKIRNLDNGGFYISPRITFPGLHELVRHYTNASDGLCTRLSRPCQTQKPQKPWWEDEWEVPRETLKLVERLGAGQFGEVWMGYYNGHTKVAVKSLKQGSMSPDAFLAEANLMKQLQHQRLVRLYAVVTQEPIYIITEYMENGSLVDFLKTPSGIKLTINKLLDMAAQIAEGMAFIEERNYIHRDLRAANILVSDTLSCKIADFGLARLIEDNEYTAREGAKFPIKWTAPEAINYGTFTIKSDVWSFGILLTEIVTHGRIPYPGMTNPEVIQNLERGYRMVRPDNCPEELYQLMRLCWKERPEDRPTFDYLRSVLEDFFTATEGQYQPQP
Mark yes (1) for IC50 under 300 µM, no (0) if at or over.

INPUT: Find out if reported IC50 for O=c1cc(-c2ccccc2)oc2cc(O)ccc12 [7-HYDROXYFLAVONE] is less than 300 µM
OUTPUT: no (0)

INPUT: Moving on to the next compound: COc1cc(-c2cc(=O)c3ccc(OC)c(OC)c3o2)cc(OC)c1OC
OUTPUT: no (0)

INPUT: Moving on to the next compound: O=c1c(O)c(-c2ccc(O)c(O)c2)oc2cc(O)cc(O)c12
OUTPUT: yes (1)

INPUT: Moving on to the next compound: COc1ccc2oc(-c3cc(OC)c(OC)c(OC)c3)cc(=O)c2c1
OUTPUT: no (0)

INPUT: Moving on to the next compound: O=c1cc(-c2ccccc2)oc2c(O)c(O)ccc12 [7,8-DIHYDROXYFLAVONE]
OUTPUT: no (0)

INPUT: Moving on to the next compound: Nc1ccc(-c2cc(=O)c3cc(O)ccc3o2)cc1
OUTPUT: yes (1)

INPUT: Moving on to the next compound: COc1cc(-c2oc3cc(O)cc(O)c3c(=O)c2O)cc(OC)c1O
OUTPUT: yes (1)

INPUT: Moving on to the next compound: COc1cc(-c2cc(=O)c3cc(O)ccc3o2)cc(OC)c1O[Si](C)(C)C(C)(C)C
OUTPUT: no (0)

INPUT: Moving on to the next compound: O=c1cc(-c2ccc(O)cc2)oc2cc(O)ccc12
OUTPUT: no (0)

INPUT: Moving on to the next compound: O=c1cc(-c2ccc(OCc3ccccc3)cc2)oc2cccc(O)c12
OUTPUT: no (0)

====

- system: Epidermal growth factor receptor (Homo sapiens)
- Sequence (P00533 whole entry): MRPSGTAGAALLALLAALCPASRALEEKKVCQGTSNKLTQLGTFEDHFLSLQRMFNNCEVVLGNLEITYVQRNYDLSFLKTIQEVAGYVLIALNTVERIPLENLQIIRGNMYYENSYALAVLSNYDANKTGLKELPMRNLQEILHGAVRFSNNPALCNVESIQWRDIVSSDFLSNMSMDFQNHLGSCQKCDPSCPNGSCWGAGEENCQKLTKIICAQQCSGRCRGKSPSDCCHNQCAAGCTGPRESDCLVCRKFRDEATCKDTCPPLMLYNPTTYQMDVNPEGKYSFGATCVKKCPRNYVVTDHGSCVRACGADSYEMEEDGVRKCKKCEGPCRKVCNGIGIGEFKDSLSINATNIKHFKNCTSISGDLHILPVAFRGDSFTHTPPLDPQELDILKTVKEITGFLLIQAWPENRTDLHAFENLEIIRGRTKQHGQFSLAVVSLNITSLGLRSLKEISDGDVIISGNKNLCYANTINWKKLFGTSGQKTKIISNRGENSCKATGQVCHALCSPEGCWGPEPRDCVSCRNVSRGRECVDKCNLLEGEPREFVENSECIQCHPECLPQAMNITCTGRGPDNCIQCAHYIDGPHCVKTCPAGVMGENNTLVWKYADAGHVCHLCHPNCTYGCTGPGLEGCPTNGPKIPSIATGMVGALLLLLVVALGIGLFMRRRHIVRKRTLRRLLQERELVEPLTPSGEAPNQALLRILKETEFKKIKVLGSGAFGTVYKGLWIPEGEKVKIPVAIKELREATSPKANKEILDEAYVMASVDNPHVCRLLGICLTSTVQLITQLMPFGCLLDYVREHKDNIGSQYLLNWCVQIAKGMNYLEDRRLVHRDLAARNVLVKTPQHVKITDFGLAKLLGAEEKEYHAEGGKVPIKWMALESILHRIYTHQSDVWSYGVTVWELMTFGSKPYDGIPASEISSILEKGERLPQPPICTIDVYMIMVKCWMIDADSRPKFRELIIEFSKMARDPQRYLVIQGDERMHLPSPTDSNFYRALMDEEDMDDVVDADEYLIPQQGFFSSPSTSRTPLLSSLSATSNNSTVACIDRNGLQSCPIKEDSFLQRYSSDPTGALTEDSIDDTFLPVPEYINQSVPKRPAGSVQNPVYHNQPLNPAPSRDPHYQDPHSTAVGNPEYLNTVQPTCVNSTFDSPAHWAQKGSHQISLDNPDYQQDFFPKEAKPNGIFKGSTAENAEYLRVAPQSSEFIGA
- assay-comment: Inhibition of EGFR in human A431 cells at 400 nmol/mg protein in presence of EGF
- Type: cell-based
- assay-context: A-431
Where a SMILES comes first, the peptide text is derived from it. The star is where a group is joined. CH2Cl = ClC*
measured-parameter: inhibition (%)
# unit: % | format: bare number

INPUT: Recorded inhibition of CC(=O)N[C@@H](C)C(=O)N[C@@H](C)C(=O)N[C@@H](Cc1ccccc1)C(=O)N[C@H](C(=O)CCl)[C@@H](C)O (Ac-AAFT-CH2Cl) , please.
OUTPUT: 10

INPUT: Moving on to the next molecule: CC(C)C[C@H](NC(=O)OC(C)(C)C)C(=O)CBr
OUTPUT: 69

INPUT: Moving on to the next molecule: O=C(CCl)[C@H](Cc1c[nH]c2ccccc12)NOCc1ccccc1
OUTPUT: 10

INPUT: Moving on to the next molecule: O=C(CCl)[C@H](Cc1ccccc1)NOCc1ccccc1
OUTPUT: 15

INPUT: Moving on to the next molecule: CC(=O)NCC(=O)NCC(=O)N[C@@H](C)C(=O)N[C@@H](Cc1ccccc1)C(=O)CCl (Ac-GGAF-CH2Cl)
OUTPUT: 0

INPUT: Moving on to the next molecule: CC(C)C[C@H](NC(=O)OCc1ccccc1)C(=O)C=[N+]=[N-]
OUTPUT: 18

INPUT: Moving on to the next molecule: CC(C)C[C@H](N)C(=O)CCl
OUTPUT: 0

INPUT: Moving on to the next molecule: C[C@H](NC(=O)OCc1ccccc1)C(=O)CCl
OUTPUT: 44

INPUT: Moving on to the next molecule: CC(=O)N[C@@H](Cc1ccccc1)C(=O)NCC(=O)N[C@@H](C)C(=O)N[C@@H](CC(C)C)C(=O)CCl (Ac-FGAL-CH2Cl)
OUTPUT: 29

This collection of values is drawn from ChEMBL document CHEMBL1150213.
